- Tested on: SK-N-FI
- procedure-summary: Cell proliferation assay (ATPlite), drug with vs without cobicistat
- Assay type: cell-based
- conditions-used: SK-N-FI cell line; 120 hours incubation
quantity: Fold change in IC50 (IC50 [Drug + Cobicistat]/IC50 [Drug]) (fold)

{"columns": ["query-smiles", "readout-value"],
 "data": [
  ["Cc1nc(Nc2ncc(C(=O)Nc3c(C)cccc3Cl)s2)cc(N2CCN(CCO)CC2)n1", 2.0],
  ["CC[C@]1(O)C[C@H]2CN(CCc3c([nH]c4ccccc34)[C@@](C(=O)OC)(c3cc4c(cc3OC)N(C=O)[C@H]3[C@@](O)(C(=O)OC)[C@H](OC(C)=O)[C@]5(CC)C=CCN6CC[C@]43[C@@H]65)C2)C1", 2.7],
  ["CC(=O)O[C@@]12CO[C@@H]1C[C@H](O)[C@@]1(C)C(=O)[C@H](O)C3=C(C)[C@@H](OC(=O)[C@H](O)[C@@H](NC(=O)OC(C)(C)C)c4ccccc4)C[C@@](O)([C@@H](OC(=O)c4ccccc4)[C@H]21)C3(C)C", 5.1],
  ["CC(=O)O[C@H]1C(=O)[C@@]2(C)[C@H]([C@H](OC(=O)c3ccccc3)[C@]3(O)C[C@H](OC(=O)[C@H](O)[C@@H](NC(=O)c4ccccc4)c4ccccc4)C(C)=C1C3(C)C)[C@]1(OC(C)=O)CO[C@@H]1C[C@@H]2O", 2.5],
  ["COc1cccc2c1C(=O)c1c(O)c3c(c(O)c1C2=O)C[C@@](O)(C(=O)CO)C[C@@H]3O[C@H]1C[C@H](N)[C@H](O)[C@H](C)O1", 2.0],
  ["CC[C@]1(O)C[C@@H]2CN(CCc3c([nH]c4ccccc34)[C@@](C(=O)OC)(c3cc4c(cc3OC)N(C)[C@H]3[C@@](O)(C(=O)OC)[C@H](OC(C)=O)[C@]5(CC)C=CCN6CC[C@]43[C@@H]65)C2)C1", 4.5]
]}

###

- System: T24
- procedure-summary: Cell proliferation assay (ATPlite), drug with vs without cobicistat
- Assay type: cell-based
- conditions-used: T24 cell line; 120 hours incubation
Kindly return 1.0 if reported Fold change in IC50 (IC50 [Drug + Cobicistat]/IC50 [Drug]) is no lower than 4 fold; return 0.0 if it is lower.

{"columns": ["compound", "class-name"],
 "data": [
  ["CC[C@]1(O)C[C@@H]2CN(CCc3c([nH]c4ccccc34)[C@@](C(=O)OC)(c3cc4c(cc3OC)N(C)[C@H]3[C@@](O)(C(=O)OC)[C@H](OC(C)=O)[C@]5(CC)C=CCN6CC[C@]43[C@@H]65)C2)C1 [vinblastine]", 1.0],
  ["COc1cccc2c1C(=O)c1c(O)c3c(c(O)c1C2=O)C[C@@](O)(C(=O)CO)C[C@@H]3O[C@H]1C[C@H](N)[C@H](O)[C@H](C)O1 [doxorubicin]", 0.0],
  ["CC(=O)O[C@@]12CO[C@@H]1C[C@H](O)[C@@]1(C)C(=O)[C@H](O)C3=C(C)[C@@H](OC(=O)[C@H](O)[C@@H](NC(=O)OC(C)(C)C)c4ccccc4)C[C@@](O)([C@@H](OC(=O)c4ccccc4)[C@H]21)C3(C)C [docetaxel]", 1.0],
  ["CC(=O)O[C@H]1C(=O)[C@@]2(C)[C@H]([C@H](OC(=O)c3ccccc3)[C@]3(O)C[C@H](OC(=O)[C@H](O)[C@@H](NC(=O)c4ccccc4)c4ccccc4)C(C)=C1C3(C)C)[C@]1(OC(C)=O)CO[C@@H]1C[C@@H]2O [paclitaxel]", 1.0],
  ["CC[C@]1(O)C[C@H]2CN(CCc3c([nH]c4ccccc34)[C@@](C(=O)OC)(c3cc4c(cc3OC)N(C=O)[C@H]3[C@@](O)(C(=O)OC)[C@H](OC(C)=O)[C@]5(CC)C=CCN6CC[C@]43[C@@H]65)C2)C1 [vincristine]", 1.0]
]}
